molecular target: Polyadenylate-binding protein 1 (Homo sapiens, UniProt P11940); assay: PABP1 MLLE–PAM2 binding inhibitor potency, dose response, biochemical, fluorescence polarization, FITC-PAM2 peptide (AID 602259); assay type: functional; conditions: read-out: IC50_Mean
Sequence (P11940 whole entry): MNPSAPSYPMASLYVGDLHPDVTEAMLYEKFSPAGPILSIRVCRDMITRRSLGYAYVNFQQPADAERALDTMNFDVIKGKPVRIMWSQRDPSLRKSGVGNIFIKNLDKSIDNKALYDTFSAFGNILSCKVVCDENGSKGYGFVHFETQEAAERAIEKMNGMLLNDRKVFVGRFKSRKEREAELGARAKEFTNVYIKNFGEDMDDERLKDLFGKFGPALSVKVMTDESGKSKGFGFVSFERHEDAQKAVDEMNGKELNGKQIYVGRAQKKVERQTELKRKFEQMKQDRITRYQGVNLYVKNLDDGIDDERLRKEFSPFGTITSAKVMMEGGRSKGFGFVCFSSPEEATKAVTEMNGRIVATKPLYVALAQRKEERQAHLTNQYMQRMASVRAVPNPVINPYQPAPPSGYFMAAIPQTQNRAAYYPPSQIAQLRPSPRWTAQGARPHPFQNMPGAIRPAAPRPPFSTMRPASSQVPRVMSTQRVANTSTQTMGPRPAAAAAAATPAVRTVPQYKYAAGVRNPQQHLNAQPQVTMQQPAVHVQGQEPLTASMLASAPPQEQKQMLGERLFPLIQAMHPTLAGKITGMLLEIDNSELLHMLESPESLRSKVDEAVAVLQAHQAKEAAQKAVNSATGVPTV
Calls of active or inactive are those of the source.
reportedProperty: IC50

// IC50 value for CC1(C)CC2=Nc3ccccc3NC(c3ccccc3F)C2=C(O)C1 (configuration not stated) : > 66 µM (inactive)

// IC50 value for O=C(O)c1ccc2nc(-c3ccco3)c(-c3ccco3)nc2c1 : 53.2 µM (inactive)

// IC50 value for COc1ccc(C)cc1-n1nnnc1SCn1nnc2ccccc2c1=O : > 66 µM (inactive)

// IC50 value for CN(CC(=O)Nc1cccc(F)c1)C(=O)CNS(=O)(=O)c1ccc(N(C)C)c([N+](=O)[O-])c1 : > 66 µM (inactive)

// IC50 value for CCOC(=O)c1ccc(NC(=O)CC2Sc3ncnn3C2=O)cc1 (configuration not stated) : > 66 µM (inactive)

// IC50 value for CN1CCN(C2=C(Cl)C(=O)N(CCc3ccccc3)C2=O)CC1 : 49.1 µM (inactive)

// IC50 value for CCOC1=CC2=C(C(=O)C(Cl)=CC2=O)[C@@H]2CN(S(=O)(=O)c3ccc(C)cc3)[C@@H](c3ccccc3)[C@H]12 : > 66 µM (inactive)

----------
assay: inhibitors of SNCA 5'UTR-driven reporter translation, confirmation, H4 neuroglioma cells, luminescence (AID 1988); type: functional, cell-based
Active and inactive are the calls of the source.
reportedProperty: EC50

Worked cases, answers included:
Cc1ccc(C(=O)NNC(=O)CCCN2C(=O)/C(=C/c3ccccc3Cl)SC2=S)cc1 14 µM (active)
Oc1c2c(nc3c(-c4cccc(Br)c4)cnn13)CCCC2 9.2 µM (active)
CCCNC(=O)c1ccc2c(O)c(O)c(-c3ccsc3)nc2c1 8.96 µM (active)
Cc1ccc(C(=O)CN2C(=O)c3ccccc3S2(=O)=O)cc1 < 0.1 µM (active)

// EC50 value for Cn1c(NCc2ccco2)nc2c1c(=O)n(Cc1ccc(Cl)cc1)c(=O)n2C : > 120 µM (not active)

// EC50 value for CC(C)OC(=O)c1cc2c(ccn2C)n1CC(=O)N(Cc1ccccc1)c1ccccc1 : 13.7 µM (active)

----------
molecular target: Cytochrome P450 3A4 (Homo sapiens, UniProt P08684);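 further: CYP3A4 tested as one member of a cytochrome P450 panel screen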
Sequence (P08684 whole entry): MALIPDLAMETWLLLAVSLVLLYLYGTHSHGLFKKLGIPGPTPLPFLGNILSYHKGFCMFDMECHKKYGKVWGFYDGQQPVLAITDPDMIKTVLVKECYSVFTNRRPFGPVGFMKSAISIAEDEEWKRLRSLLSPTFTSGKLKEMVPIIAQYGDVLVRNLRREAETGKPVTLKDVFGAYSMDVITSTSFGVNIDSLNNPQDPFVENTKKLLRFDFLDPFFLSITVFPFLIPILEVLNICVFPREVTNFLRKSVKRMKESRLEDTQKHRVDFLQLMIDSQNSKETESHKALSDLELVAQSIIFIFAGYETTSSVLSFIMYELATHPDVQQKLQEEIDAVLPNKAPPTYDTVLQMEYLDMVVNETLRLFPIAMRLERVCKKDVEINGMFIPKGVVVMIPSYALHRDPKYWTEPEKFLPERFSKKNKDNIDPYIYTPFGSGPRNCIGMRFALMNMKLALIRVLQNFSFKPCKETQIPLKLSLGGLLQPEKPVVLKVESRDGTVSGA
Listed here are compounds together with their documented AC50.

Worked cases, answers included:
compound	experimentalValue
CC(C)(O)C#Cc1ccc(C(=O)NCc2cccs2)s1	28.2 µM (inconclusive)
COCCn1c(=O)c(C)nc2cnc(OC)nc21	31.6 µM (inconclusive)

AC50 for Cytochrome P450 3A4 (Homo sapiens, UniProt P08684) with input COc1cc(-c2ccc(/N=N\c3ccc4c(S(=O)(=O)O)cc(S(=O)(=O)O)c(N)c4c3O)c(OC)c2)ccc1/N=N\c1ccc2c(S(=O)(=O)O)cc(S(=O)(=O)O)c(N)c2c1O equals 10 µM (inconclusive)

AC50 for Cytochrome P450 3A4 (Homo sapiens, UniProt P08684) with input O=C(Nc1cccc(C(F)(F)F)c1)c1n[nH]c(Cn2cncn2)n1 equals 25.1 µM (inconclusive)

AC50 for Cytochrome P450 3A4 (Homo sapiens, UniProt P08684) with input COc1cccc(-c2nc(C[S+]([O-])CC(=O)N3CCC4(CC3)OCCO4)c(C)o2)c1 (stereo not given) equals 12.6 µM (inconclusive)

AC50 for Cytochrome P450 3A4 (Homo sapiens, UniProt P08684) with input O=c1[nH]c(=O)n([C@H]2C[C@H](O)[C@H](CO)O2)cc1/C=C\Br equals 20 µM (inconclusive)

AC50 for Cytochrome P450 3A4 (Homo sapiens, UniProt P08684) with input COc1ccc(-c2nnc(-c3cccnc3)o2)cc1 equals 1.58 µM (inconclusive)

AC50 for Cytochrome P450 3A4 (Homo sapiens, UniProt P08684) with input O=c1nc(SCc2cccc([N+](=O)[O-])c2)[nH]c2nc[nH]c12 equals 3.16 µM (inconclusive)

AC50 for Cytochrome P450 3A4 (Homo sapiens, UniProt P08684) with input Cc1cc(NC(=O)c2c([N+](=O)[O-])cnn2C)no1 equals 25.1 µM (inconclusive)

AC50 for Cytochrome P450 3A4 (Homo sapiens, UniProt P08684) with input O=c1cc(N2CCN(c3cccc(Cl)c3)CC2)[nH]c(=O)n1C1CCCCC1 equals 3.55 µM (inconclusive)

----------
test: growth suppression of PTEN-null colon cells, dose response, cell-based, HCT116 PTEN knockout (AID 1047); assay type: functional;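 further: HCT116 colon tumor cells with PTEN knocked out; cells exposed to compound for 60 hours before readout; potency for loss of cell viability measured by luminescence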
Active and inactive are the calls of the source.
Listed here are molecules together with their documented EC50.

Worked cases, answers included:
molecule	experimentalValue
COc1ccccc1NS(=O)(=O)c1cc([N+](=O)[O-])ccc1N/N=C/c1c[nH]c2ccccc12	21.9 µM (active)
CCOC(=O)C(C(=O)OCC)C(Nc1cccc(Br)c1)c1ccccc1 (centres undefined)	115 µM (active)
Cc1cc(C)cc(NS(=O)(=O)c2ccc3[nH]cc(C(=O)NCc4ccco4)c(=O)c3c2)c1	2.68 µM (active)

# context switch: different molecule, same EC50
// EC50 value for N#C/C(=C/c1cn(-c2ccccc2)nc1-c1cccc(OCc2ccc(F)cc2)c1)C(=O)NCCCn1ccnc1 : 23.4 µM (active)

----------
biological target: Carboxy-terminal domain RNA polymerase II polypeptide A small phosphatase 1 (Homo sapiens); test: inhibitors of CTDSP1, concentration-response testing, biochemical assay, absorbance-based, actives from ultra-high-throughput screening (AID 540297); format: functional
Sequence (Q9GZU7 whole entry, the tested form may be a part): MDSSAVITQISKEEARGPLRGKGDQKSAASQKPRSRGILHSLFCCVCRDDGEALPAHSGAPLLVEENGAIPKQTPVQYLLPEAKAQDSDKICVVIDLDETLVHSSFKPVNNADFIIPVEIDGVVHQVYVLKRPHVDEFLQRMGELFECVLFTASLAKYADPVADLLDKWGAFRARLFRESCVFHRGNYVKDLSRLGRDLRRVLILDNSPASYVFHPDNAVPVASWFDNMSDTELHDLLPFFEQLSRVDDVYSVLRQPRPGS
The source made the active and inactive calls.
Listed here are compounds together with their documented IC50.

Worked cases, answers included:
O=C(CN1C(=O)/C(=C2/SC(=S)N(CCS(=O)(=O)O)C2=O)c2ccccc21)Nc1cccc(C(F)(F)F)c1 2.41 µM (active)
N#CCC(=O)Nc1ccc(C(=O)OCC(=O)Nc2ccc3ccccc3c2)cc1 68.5 µM (active)
COc1ccc(/C=N/Nc2ncc(Br)cn2)c(OC)c1 19.6 µM (active)

# context switch: different compound, same IC50
// IC50 value for O=C1OC(c2ccc3c(c2)OCO3)=N/C1=C\c1ccc(C(=O)O)cc1 : 1.38 µM (active)

----------
target: Nonstructural protein 1 (Influenza A virus); type: functional, Influenza A virus (A/California/07/2009(H1N1))
Sequence (Q194T2 whole entry): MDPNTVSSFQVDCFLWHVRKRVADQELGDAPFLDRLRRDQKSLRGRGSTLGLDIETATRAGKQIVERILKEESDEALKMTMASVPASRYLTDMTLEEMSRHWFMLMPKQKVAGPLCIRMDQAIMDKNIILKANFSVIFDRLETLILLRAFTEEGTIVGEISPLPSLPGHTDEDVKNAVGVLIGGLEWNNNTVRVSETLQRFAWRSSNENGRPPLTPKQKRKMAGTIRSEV
Where a name gives a salt, the structure may show the parent alone. Activity calls are given as the source filed them.
reportedProperty: IC50

Worked cases, answers included:
compound	IC50
O=C1c2c(O)ccc(O)c2C(=O)c2c(NCCNCCO)ccc(NCCNCCO)c21 [MITOXANTRONE HYDROCHLORIDE]	1.1 µM (active)
Cc1ccc(S(=O)(=O)NCc2ccc3c(c2)cc(C)n3C)cc1	86.6 µM (active)

// IC50 value for C[n+]1c(-c2ccccc2)c2cc(N)ccc2c2ccc(N)cc21 : 30.5 µM (active)

// IC50 value for Cc1cc(C(=O)N/N=C/c2cc([N+](=O)[O-])cc(C)c2O)[nH]n1 : 8.76 µM (active)

----------
molecular target: Kappa-type opioid receptor (Homo sapiens, UniProt P41145); format: functional
Sequence (P41145 whole entry): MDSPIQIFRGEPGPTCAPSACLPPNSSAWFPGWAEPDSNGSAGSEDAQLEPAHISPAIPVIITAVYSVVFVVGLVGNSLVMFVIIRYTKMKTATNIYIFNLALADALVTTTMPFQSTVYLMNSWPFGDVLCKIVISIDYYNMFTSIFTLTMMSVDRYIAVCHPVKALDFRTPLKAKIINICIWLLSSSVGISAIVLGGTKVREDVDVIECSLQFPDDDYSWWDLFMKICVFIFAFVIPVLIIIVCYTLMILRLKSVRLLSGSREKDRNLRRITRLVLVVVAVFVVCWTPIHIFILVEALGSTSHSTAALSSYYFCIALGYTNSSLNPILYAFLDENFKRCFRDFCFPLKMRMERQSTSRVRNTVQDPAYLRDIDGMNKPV
Listed here are molecules together with their documented pEC50.
Scale explanation: pEC50 corresponds to minus log10 of a concentration expressed in moles per litre.

molecule	experimentalValue
COc1ccc(CN(CC2CCCO2)C(=O)CN2C(=O)COc3ccccc32)cc1OC (configuration not stated)	4.96

# context switch: different molecule, same pEC50
// pEC50 value for O=C(c1cnccn1)N(Cc1ccco1)C1(C(=O)NC2CCCCC2)CCCCC1 : 5.62

----------
test system: Streptococcus; test: Group A Streptococcus viability loss, dose response, counter-screen for streptokinase expression inhibitor project, luminescence, BacTiterGlo (AID 1915); type: functional, organism-based;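 further: potency for reduction of bacterial viability or growth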
The source made the active and inactive calls.
Listed here are compounds together with their documented EC50.

compound	targetDesc	experimentalValue
CC1=NN(c2nc(-c3ccccc3)cs2)C(=O)C1	Streptococcus	> 150 µM (not active)

// EC50 value for O=C(N[C@H](CO)[C@H](O)c1ccc([N+](=O)[O-])cc1)C(Cl)Cl [CHLORAMPHENICOL] : 2.55 µM (active)

// EC50 value for O=C(Nc1cccc(-c2csc(Nc3ccc(Cl)cc3)n2)c1)c1ccccc1 : 5.66 µM (active)

// EC50 value for CCCC1=NN2C(=N)/C(=C\c3cc(C)n(-c4cc(C)cc(C)c4)c3C)C(=O)N=C2S1 : 18.7 µM (active)

// EC50 value for O=C(c1ccccc1Cl)N1CCN(S(=O)(=O)c2cccs2)CC1 : > 150 µM (not active)

----------
target: Muscarinic acetylcholine receptor M5 (Rattus norvegicus); assay: Discovery of Selective Novel Positive Allosteric Modulators (PAM) of the Muscarinic Receptor (M5) in CHO cells expressing Rattus Norvegicus M5 receptor.
Sequence (P08911 whole entry): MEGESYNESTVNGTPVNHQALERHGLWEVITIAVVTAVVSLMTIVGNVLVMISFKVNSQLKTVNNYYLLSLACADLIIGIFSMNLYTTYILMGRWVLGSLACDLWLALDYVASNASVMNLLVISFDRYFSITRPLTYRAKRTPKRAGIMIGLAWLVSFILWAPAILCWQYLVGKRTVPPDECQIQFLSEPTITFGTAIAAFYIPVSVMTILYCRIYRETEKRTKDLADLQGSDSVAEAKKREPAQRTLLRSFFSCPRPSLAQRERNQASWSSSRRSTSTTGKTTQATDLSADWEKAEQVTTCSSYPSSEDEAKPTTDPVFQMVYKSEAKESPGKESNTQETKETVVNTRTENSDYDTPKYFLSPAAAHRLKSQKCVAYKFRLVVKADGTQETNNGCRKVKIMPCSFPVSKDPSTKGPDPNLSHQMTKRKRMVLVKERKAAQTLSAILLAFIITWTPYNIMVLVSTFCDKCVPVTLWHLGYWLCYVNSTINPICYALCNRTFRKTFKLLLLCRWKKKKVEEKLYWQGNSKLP
reportedProperty: pEC50
Scale explanation: pEC50 corresponds to minus log10 of a concentration expressed in moles per litre.

// pEC50 value for O=C1C(=O)N(CCOc2ccccc2)c2ccc(OC(F)(F)F)cc21 : 6.33
